Assign ED50, inhibition of the cAMP level increased by forskolin to each entry below.
- Assayed System: human 0T7T022 receptor (human)
- Sequence (Q9GZQ6 whole entry): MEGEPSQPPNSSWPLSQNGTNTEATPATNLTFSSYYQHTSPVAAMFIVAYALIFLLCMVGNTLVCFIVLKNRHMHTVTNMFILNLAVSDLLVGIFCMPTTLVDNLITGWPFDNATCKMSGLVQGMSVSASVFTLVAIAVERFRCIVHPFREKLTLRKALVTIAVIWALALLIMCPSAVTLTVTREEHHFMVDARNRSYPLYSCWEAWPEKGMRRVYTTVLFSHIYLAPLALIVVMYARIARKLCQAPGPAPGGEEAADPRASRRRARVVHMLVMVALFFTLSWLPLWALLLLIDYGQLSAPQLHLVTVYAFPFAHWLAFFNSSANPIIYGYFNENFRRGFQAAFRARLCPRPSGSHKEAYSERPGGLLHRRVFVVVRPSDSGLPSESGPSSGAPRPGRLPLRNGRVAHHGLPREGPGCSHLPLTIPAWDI
- Assay: cell-based or functional assay
Where no end group is shown, it is not given here.
Numbers only, in nM.

LPLRF-NH2 [LPLRFamide (peptide shown by Leu-Pro-Leu-Arg-Phe-NH2)]
36
NPFF [NPFF (peptide shown by Asn-Pro-Phe-Phe)]
140

Proceed to the following item.
(Q) Name the recorded ED50, inhibition of the cAMP level increased by forskolin of the binder listed here: MPHSFANLPLRF-NH2 [peptide MPHSFANLPLRFamide (Met-Pro-His-Ser-Phe-Ala-Asn-Leu-Pro-Leu-Arg-Phe-NH2)]
(A) 4.5
